Data provenance: patent US10336762B2

Measured IC50 accompanies every entry in the list below.
biological target: UniProt:Q9NWZ3; assay: biochemical; assay type: biochemical; conditions: IRAK4 enzyme, TR-FRET (HTRF), 500 μM ATP
Sequence (Q9NWZ3 whole entry): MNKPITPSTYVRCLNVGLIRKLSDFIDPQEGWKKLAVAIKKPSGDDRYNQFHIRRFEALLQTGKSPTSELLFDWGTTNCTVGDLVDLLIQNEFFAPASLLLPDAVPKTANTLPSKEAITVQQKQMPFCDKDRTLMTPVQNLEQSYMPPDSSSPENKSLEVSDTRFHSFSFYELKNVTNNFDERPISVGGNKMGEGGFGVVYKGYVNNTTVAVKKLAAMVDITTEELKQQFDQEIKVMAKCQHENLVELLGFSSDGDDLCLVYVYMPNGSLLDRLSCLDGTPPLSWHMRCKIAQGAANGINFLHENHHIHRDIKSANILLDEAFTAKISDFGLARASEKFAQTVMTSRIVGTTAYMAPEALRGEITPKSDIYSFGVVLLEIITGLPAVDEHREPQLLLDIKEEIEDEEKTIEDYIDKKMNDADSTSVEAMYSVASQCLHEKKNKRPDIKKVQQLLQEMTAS
Write it as a number; the unit nM goes unstated.

Please review the following examples before continuing.
In [3]: df
Out[3]:
                                   compound          system  value
0  CNC(=O)c1cnc(-c2ccc3cc(C#N)cnn23)cc1N[C@H]1CC[C@@H](C(=O)NC)C1 [Example 465]  UniProt:Q9NWZ3      8
1  CCNC(=O)C12CCC(Nc3cc(-c4ccc5cc(C#N)cnn45)ncc3C(=O)NC[C@@H](F)C(C)(C)O)(CC1)CC2 [Example 407]  UniProt:Q9NWZ3      2

As a next step, examine the compound that follows.
Ask | Please look at CNc1cc(-c2ccc3cc(C#N)cnn23)ncc1C(=O)NCC#N [Example 463] and tell me its recorded IC50 on UniProt:Q9NWZ3.
Reply | 3
